Taken from PubChem BioAssay AID1645853.

# system: Ubiquitin carboxyl-terminal hydrolase 8 (Homo sapiens)
# procedure text: blocks human USP8 ubiquitin-rhodamine cleavage (AID 1645853)
# protocol conditions: purified USP8, Ub-rhodamine cleavage fluorescence, 30 min; at 20 µM; hits give high values
The campaign covered roughly 47,000 compounds. About 2,000 (4.3%) were called active. For the sample, actives were picked, then their nearest neighbours and some compounds at random.
quantity name: inhibition (%)
API: value field is a number in %; no unit string.

# input Which value of inhibition has been reported for "Cn1c(=O)c(-c2ccc(C(=O)NCc3ccc(F)cc3F)cc2)nc2cccnc21" in the records?
# output 15.4

# input Which value of inhibition has been reported for "Cc1ccc(C(=O)N2C[C@@H]3CCN(c4ncccn4)C[C@@H]3C2)cc1" in the records?
# output -16.6

# input Which value of inhibition has been reported for "Cc1ccc(NC(=O)NCc2nnnn2-c2ccccc2)cc1C" in the records?
# output 0.496

# input Which value of inhibition has been reported for Cc1cccc(NC(=O)N2CCCC3(CCCN3C)C2)c1 (stereo unspecified) in the records?
# output -319

# input Which value of inhibition has been reported for "O=C(Nc1c2c(nn1-c1cccc(Cl)c1)CS(=O)(=O)C2)c1cccs1" in the records?
# output 9.3

# input Which value of inhibition has been reported for C=C1CCC2[C@](C)(CCC[C@]2(C)C(=O)OC)[C@H]1CCc1ccoc1CNCC(=O)O (stereo partly specified) in the records?
# output -5.45

# input Which value of inhibition has been reported for O=C(NCc1ccc2c(c1)OCO2)C1CCCN(c2nc3ccc(Cl)cc3[nH]2)C1 (stereo unspecified) in the records?
# output 7.49

# input Which value of inhibition has been reported for "Cc1ccc2occ(CC(=O)Nc3sc4c(c3C(=O)NCc3cccnc3)CCCC4)c2c1" in the records?
# output 20.7

# input Which value of inhibition has been reported for "COc1ccc(NC(=O)CS(=O)(=O)c2cn(CC(=O)N3CCCC3)c3ccccc23)cc1" in the records?
# output -8.78

# input Which value of inhibition has been reported for "Cc1ccc(Cn2nccc2NC(=O)c2cc(-c3ccccc3)on2)cc1" in the records?
# output 14.1

# input Which value of inhibition has been reported for "COc1cc(-c2nc3c4cnn(-c5ccccc5)c4ncn3n2)cc(OC)c1OC" in the records?
# output -3.12

# input Which value of inhibition has been reported for "CC(C)(C)c1nn(-c2ccccc2)c2[nH]c(=O)c(CNCCc3ccccc3)cc12" in the records?
# output 85

# input Which value of inhibition has been reported for "CCS(=O)(=O)Nc1cc(S(=O)(=O)Nc2cc(Cl)ccc2Cl)ccc1N1CCOCC1" in the records?
# output 2.1

# input Which value of inhibition has been reported for Cn1c2c(c(=O)n(C)c1=O)C(c1cccc(Cl)c1Cl)CC(=O)N2 (stereo unspecified) in the records?
# output -0.255

# input Which value of inhibition has been reported for CC1CCc2c(sc3ncnc(OCc4cccc([N+](=O)[O-])c4)c23)C1 (stereo unspecified) in the records?
# output -36.3

# input Which value of inhibition has been reported for "Cc1cc(C)c2nc3c(cc2c1)CN(Cc1ccco1)C(=O)O3" in the records?
# output 75.7

# input Which value of inhibition has been reported for "CN(C)c1ccc(S(=O)(=O)NCC(=O)NCC2CCCCC2)cc1[N+](=O)[O-]" in the records?
# output -110

# input Which value of inhibition has been reported for "COCCn1cnc2c1c(=O)n(CC(=O)Nc1c(C)cc(C)cc1C)c(=O)n2Cc1ccccc1" in the records?
# output 32.6

# input Which value of inhibition has been reported for C=C1CCC2[C@](C)(CCC[C@]2(C)C(=O)OC)[C@H]1CCc1ccoc1/C=C/C(=O)O (stereo partly specified) in the records?
# output 63.4

# input Which value of inhibition has been reported for "Cc1ccc(CCNCc2c(C(=O)O)n(C)c3ccccc23)cc1" in the records?
# output -1.77

# input Which value of inhibition has been reported for "CC(=O)N1CCc2cc(S(=O)(=O)Nc3ccccc3N3CCN(C)CC3)ccc21" in the records?
# output -8.86
